# Test system: gene editing with dCas9
# EXPERIMENTAL DETAILS: Screen of 322 new SSAP proteins, gene editing activity with dCas9 (Table 5)
# Format: cell-based
# ASSAY CONDITIONS: normalized
Examples of molecules with documented dCas9 with SSAP activity (normalized) follow.

{"MOLECULE": "SSAP_112: SEQ ID NO: 281; Bacillus sp. UNC322MFChir4.1 (protein, listed as Bacillus sp.) ATNKDVKNQLANRKENKPATPEQKVEAYMTAMAPRFAEVLPKHMSMDRMSRIALTTIRTNPKLLECSVPSLMGAVMQAVQLGLEPGLLGHCYILPYKSEATFIIGYKGMIDLARRSGHIQSIYAHAVYENDEFDYELGLHPKLTHKPSFGERGEFIGAYAVAHFKDGGHQMEFMPKSEIEKRRSRSASGNSSYSPWKSDYEEMAKKTVVRYMFKYLPISIEVQSQAQHDEVVRKDITEEPEFIEMDSIEVAEASEGDGQKEFVIEE", "dCas9 with SSAP activity (normalized)": "−0.986"}
{"MOLECULE": "SSAP_102: SEQ ID NO: 271; Halomonas coralii (protein, listed as Halomonas coralii) TDQATAEPQEDLGKQLQQHSQRKPMPTTIQGMLKDDRFTGQIARALPKHITPDRISRIALTEVNKTPALGKCDPMSLFGSIIQSAQLGLELGGALGHAYLVPYKDQAQFIIGYRGMIDLARRSGQMVSLQAHTVHENDDFEFEYGLDEKLRHVPARGQRGPMIAVYAVAKLTGGGHQIEVMWKEDVDAIRQQSKAGNSGPWRDHYEEMAKKTAIRRLFKYLPVSVEMQKAVSLDEQAEAGVQDNNVFDGEFSYQEPE", "dCas9 with SSAP activity (normalized)": "−0.325"}

src = patent US20250034594A1
